// provenance: the supplement of paper PMC7877785

# measurement.notes: self-splicing fitness, log relative to wild type (ln ratio); higher = more splicing; Tetrahymena group I intron in knt gene, E. coli kanamycin selection, DiMSum; sequences stand for … in CUCUCU…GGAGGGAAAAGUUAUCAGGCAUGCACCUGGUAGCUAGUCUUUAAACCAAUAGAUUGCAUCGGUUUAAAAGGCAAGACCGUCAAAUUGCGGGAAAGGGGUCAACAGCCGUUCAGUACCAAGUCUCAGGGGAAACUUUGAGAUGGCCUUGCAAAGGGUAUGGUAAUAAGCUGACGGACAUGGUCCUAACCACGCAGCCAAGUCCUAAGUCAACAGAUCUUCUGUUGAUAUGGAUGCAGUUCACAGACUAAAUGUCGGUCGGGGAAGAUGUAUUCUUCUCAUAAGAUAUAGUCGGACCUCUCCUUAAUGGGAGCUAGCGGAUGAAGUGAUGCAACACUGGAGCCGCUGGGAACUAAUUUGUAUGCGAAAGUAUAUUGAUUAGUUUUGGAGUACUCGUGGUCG;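 note: selection with 25 µg/mL kanamycin versus none on LB agar overnight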
# condition.parameters: 30 °C
Exercise: for every item that follows, state its recorded self-splicing fitness (ln).
// print number alone

query: Note down self-splicing fitness (ln) recorded for GUUCAGCAAUAUUACGAUGC
result: -0.236

query: Check the records and state self-splicing fitness (ln) for CGUGAGCAAUAUUACGUUCC
result: -3.37

query: Note self-splicing fitness (ln) for the sequence shown: CGUCAGCAAUAUUACGGUCA
result: -0.717

query: Specify reported self-splicing fitness (ln) for the sequence shown: UUACAGCAAUAUUACGUUAC
result: -3.56

query: Answer with reported self-splicing fitness (ln) of UCGGAGCAAUAUUACGCCGA
result: -3.12

query: Answer with reported self-splicing fitness (ln) of CCCCAGCAAUAUUACGGGGG
result: -4.74

query: Consider the sequence GGCUAGCAAUAUUACGCAUU and give its recorded self-splicing fitness (ln).
result: -0.352

query: Fill in self-splicing fitness (ln) for record ACCGAGCAAUAUUACGUUCG
result: -3.19

query: Please supply the value of reported self-splicing fitness (ln) for the item GAUGAGCAAUAUUACGCUAU
result: -2

query: Check the records and state self-splicing fitness (ln) for GCAGAGCAAUAUUACGCAGG
result: -4.06

query: Input GAUCAGCAAUAUUACGCCGA , output reported self-splicing fitness (ln).
result: -0.954

query: Quickly give me recorded self-splicing fitness (ln) for CGAUAGCAAUAUUACGAAUA
result: -0.837

query: # return recorded self-splicing fitness (ln) for entry AACUAGCAAUAUUACGCUGG
result: -3.28

query: Query self-splicing fitness (ln) for GAGGAGCAAUAUUACGCAUG
result: -3.19

query: State, in one line, measured self-splicing fitness (ln) of CUGCAGCAAUAUUACGCCAC
result: -2.82

query: Output self-splicing fitness (ln) of CACGAGCAAUAUUACGUACC
result: -2.54

* * *

# measurement.notes: self-splicing fitness, log relative to wild type (ln ratio); higher = more splicing; Tetrahymena group I intron in knt gene, E. coli kanamycin selection, DiMSum; sequences stand for … in CUCUCU…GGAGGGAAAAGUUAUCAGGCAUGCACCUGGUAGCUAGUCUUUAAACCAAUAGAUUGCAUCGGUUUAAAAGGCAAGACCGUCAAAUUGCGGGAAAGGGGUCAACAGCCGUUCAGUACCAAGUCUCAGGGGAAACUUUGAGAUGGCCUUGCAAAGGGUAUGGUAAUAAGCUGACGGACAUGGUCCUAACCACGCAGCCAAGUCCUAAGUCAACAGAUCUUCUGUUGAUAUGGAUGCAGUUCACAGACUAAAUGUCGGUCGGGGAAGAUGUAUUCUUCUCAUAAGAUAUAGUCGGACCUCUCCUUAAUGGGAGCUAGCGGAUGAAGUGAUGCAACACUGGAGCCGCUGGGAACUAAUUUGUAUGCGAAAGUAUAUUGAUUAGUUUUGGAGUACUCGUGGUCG
# condition.parameters: 30 °C
Would you mind telling me the reported self-splicing fitness (ln) of each entry?
Reply: number alone, nothing else.

query: Note down self-splicing fitness (ln) recorded for CUUGAGCAAUAUUACGACGU
result: -3.62

query: Find the measured self-splicing fitness (ln) of CUUGAGCAAUAUUACGGCCU and report it.
result: -3.92

query: Tell us which self-splicing fitness (ln) value is on record for CCCCAGCAAUAUUACGACCU
result: -3.23

query: Please supply the value of reported self-splicing fitness (ln) for the item GUGUAGCAAUAUUACGAUAG
result: -3.84

query: Note down self-splicing fitness (ln) recorded for AUUAAGCAAUAUUACGGUAA
result: -1.64

query: In one line, give reported self-splicing fitness (ln) of the entry AAAGAGCAAUAUUACGACAU .
result: -1.9

query: For the sequence AAGAAGCAAUAUUACGCCAU , report self-splicing fitness (ln).
result: -2.82

query: Report self-splicing fitness (ln) for UCUCAGCAAUAUUACGCUGU
result: -2.3

query: // fetch self-splicing fitness (ln) given entry CGCUAGCAAUAUUACGGAUA
result: -2.99

query: Using known records, supply self-splicing fitness (ln) for CCCCAGCAAUAUUACGCGUG
result: -4.14

query: Specify self-splicing fitness (ln) for UGCAAGCAAUAUUACGAUCC and stop.
result: -1.21

query: For UAACAGCAAUAUUACGAGUC , write its self-splicing fitness (ln).
result: -3.74

query: For the sequence AGGCAGCAAUAUUACGAAUC , give its reported self-splicing fitness (ln).
result: -2.29

query: Give reported self-splicing fitness (ln) value for GUUCAGCAAUAUUACGCUUA
result: -0.682

query: Answer with reported self-splicing fitness (ln) of GUUAAGCAAUAUUACGGACG
result: -1.07

query: Specify reported self-splicing fitness (ln) for the sequence shown: AGCGAGCAAUAUUACGUUGG
result: -2.04

query: Recall and state the measured self-splicing fitness (ln) for AAGCAGCAAUAUUACGGGGA .
result: -3.53

query: Determine from records and report self-splicing fitness (ln) for ACGAAGCAAUAUUACGGGCU
result: -0.943

query: Return reported self-splicing fitness (ln). Input sequence: UAGUAGCAAUAUUACGAUUA
result: -0.381

query: Annotate the sequence CUGUAGCAAUAUUACGACUC with its measured self-splicing fitness (ln).
result: -4.11

query: Consider the sequence AAACAGCAAUAUUACGACCG and give its recorded self-splicing fitness (ln).
result: -1.6

query: Answer with the recorded self-splicing fitness (ln) for the sequence listed here: AGCAAGCAAUAUUACGGUUA
result: -0.707

query: Provide only the value of recorded self-splicing fitness (ln) for UAGUAGCAAUAUUACGCCGA
result: -1.81

query: Identify the reported self-splicing fitness (ln) for the following entry. GCUGAGCAAUAUUACGGGCA
result: -1.76

query: Return reported self-splicing fitness (ln). Input sequence: GCUCAGCAAUAUUACGGGUU
result: -1.29

query: In one line, give reported self-splicing fitness (ln) of the entry CAGAAGCAAUAUUACGGUUC .
result: -3.71

query: Answer with reported self-splicing fitness (ln) of GGUUAGCAAUAUUACGGUCU
result: -0.263

query: Entry CCAGAGCAAUAUUACGUGUG needs its self-splicing fitness (ln) filled in; supply it.
result: -1.69

query: Please supply the value of reported self-splicing fitness (ln) for the item CGUGAGCAAUAUUACGUCUA
result: -2.99

query: Identify measured self-splicing fitness (ln) associated with CAUCAGCAAUAUUACGACAG
result: 0.0306

query: Supply self-splicing fitness (ln) value. Item: CGCCAGCAAUAUUACGCCCU
result: -1.93

query: Look up self-splicing fitness (ln) of AGACAGCAAUAUUACGGACC and report it.
result: -0.551

query: Using the record for AACCAGCAAUAUUACGUGUG , state its measured self-splicing fitness (ln).
result: -1.05

query: Tell us which self-splicing fitness (ln) value is on record for UCCUAGCAAUAUUACGACCU
result: -3.41
